Consider the following compounds; for each one, report its pKi.
Biological target: human PDE10A2 (Homo sapiens (Human), UniProt Q9Y233)
Sequence (Q9Y233 267-1055): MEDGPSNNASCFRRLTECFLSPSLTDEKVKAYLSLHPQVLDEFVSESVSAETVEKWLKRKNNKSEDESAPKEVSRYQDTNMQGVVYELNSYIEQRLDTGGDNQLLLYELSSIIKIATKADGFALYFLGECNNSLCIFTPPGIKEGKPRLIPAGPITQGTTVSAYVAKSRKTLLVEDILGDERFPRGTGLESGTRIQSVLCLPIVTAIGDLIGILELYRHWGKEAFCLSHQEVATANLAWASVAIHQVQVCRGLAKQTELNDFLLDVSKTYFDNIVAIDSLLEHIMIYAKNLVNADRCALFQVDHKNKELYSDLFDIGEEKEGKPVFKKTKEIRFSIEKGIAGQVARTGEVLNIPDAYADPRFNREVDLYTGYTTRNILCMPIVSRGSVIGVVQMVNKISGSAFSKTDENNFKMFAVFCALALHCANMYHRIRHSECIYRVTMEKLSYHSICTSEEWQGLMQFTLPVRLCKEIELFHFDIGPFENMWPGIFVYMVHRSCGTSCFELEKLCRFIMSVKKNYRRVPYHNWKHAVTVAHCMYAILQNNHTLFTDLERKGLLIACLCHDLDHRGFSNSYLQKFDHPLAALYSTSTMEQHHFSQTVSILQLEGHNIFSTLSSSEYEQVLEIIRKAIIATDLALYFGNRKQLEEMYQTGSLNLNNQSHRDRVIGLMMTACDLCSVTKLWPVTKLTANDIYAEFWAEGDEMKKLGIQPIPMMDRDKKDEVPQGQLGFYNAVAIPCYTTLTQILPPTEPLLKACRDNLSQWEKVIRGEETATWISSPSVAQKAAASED
Assay: PDE10 fluorescence polarization (IMAP FP) inhibition assay
Assay type: biochemical
Conditions: human PDE10A2 lysate, IMAP FP, 50 nM FAM-labeled cAMP, room temperature; read-out: PDE10A Ki
API: returns pKi as number; meaning -log10 of concentration in mol/L.

Lab book: pKi of "O=c1n(C[C@@H]2C[C@H]2c2ccccn2)nc2cccc(N3CCOCC3)n12" noted as 6.26

Field pKi (entry "Cn1cc(-c2ccccc2)nc1CCn1nc2cccc(N3CCOCC3)n2c1=O" ) reads 9.39

For reference, reported pKi for "Cn1cc(-c2ccccc2)nc1CCn1nc2cccc(Br)n2c1=O" stands at 8.14

"Cc1cccn2c(=O)n(CCc3ccc4ccccc4n3)nc12" yielded pKi of 7.13

Quick note, pKi for "O=c1n(CCc2ccc3ccccc3n2)nc2c(Br)cccn12" landed at 7.43

Data point: "O=c1n(CCc2ccc3ccccc3n2)nc2c(-c3ncco3)cccn12" ; pKi = 7.66

Note to self: pKi recorded for "O=c1n(CCc2ccc3ccccc3n2)nc2ccc(Br)cn12" was 6.81

Query "CC(C)(O)c1cccc2nn(CCc3ccc4ccccc4n3)c(=O)n12" yields pKi of 7.14

The reported value for "O=c1n(CCc2ccc3ccccc3n2)nc2cccc(-c3ccccc3)n12" in terms of pKi is 7.70

Kindly note the recorded pKi for "O=c1n(CCc2ccc3ccccc3n2)nc2cccc(-c3ccncc3)n12" , which is 8.36

Measured pKi, "O=c1n(CCc2ccc3ccccc3n2)nc2cccc(Br)n12" : 7.23

Value of pKi reported for the compound "O=c1n(CCc2ccc3ncccc3n2)nc2c(-c3ccncc3)cccn12" is 6.99

Lab note: measured pKi of "O=C(Nc1cccnc1)c1cccc2nn(CCc3ccc4ccccc4n3)c(=O)n12" was 7.01

Quick note, pKi for "O=c1n(CCc2ccc3ccccc3n2)nc2cccc(N3CCOCC3)n12" landed at 8.60

Record COc1ccc(C(C)(O)c2cccc3nn(CCc4ccc5ccccc5n4)c(=O)n23)cc1 (stereo not shown) , field pKi: 7.96

Data point: "O=c1n(CCc2ccc3ccccc3n2)nc2cccc(-c3cncs3)n12" ; pKi = 7.64

Memo: "Cn1cc(-c2ccccc2)nc1CCn1nc2cccc(-c3ccncc3)n2c1=O" , reported pKi: 8.70

Please fill in: pKi reported for "Cc1ccc(-c2cccc3nn(CCc4ccc5ccccc5n4)c(=O)n23)cc1" = 7.77

Memo: "O=c1n(CCc2ccc3ccccc3n2)nc2cccc(NCc3cccnc3)n12" , reported pKi: 7.92

Kindly note the recorded pKi for "O=c1n(CCc2ccc3ccccc3n2)nc2cccc(N3CCCCC3)n12" , which is 7.72

Quick note, pKi for "O=c1n(CCc2ccc3ccccc3n2)nc2cccc(-c3cccnc3)n12" landed at 8.05

"O=c1n(CCc2ccc3ccccc3n2)nc2ccc(-c3cccnc3)cn12" yielded pKi of 6.29
